// reported GI50 per item
System: CAKI-1
Experiment: NCI tumour cell line growth inhibition, 48 h
Active and inactive are the calls of the source. Rule as the data show it: active = GI50 up to about 1.1 µM and inactive = higher.
Reported endpoint: GI50

>  <Compound>
COc1ccc(/C=N/N=C(\N)NO)cc1F

>  <Assay result>
14.5 µM (inactive)

$$$$
>  <Compound>
COc1ccc(C2=Nn3c(nc4sc5c(c4c3=O)CCCC5)SC2)cc1

>  <Assay result>
> 100 µM (inactive)

$$$$
>  <Compound>
CC(C)N(O)C(=N)c1ccccc1

>  <Assay result>
> 100 µM (inactive)

$$$$
>  <Compound>
O=c1c2cc3ccccc3n2c(=O)c2cc3ccccc3n12

>  <Assay result>
> 100 µM (inactive)

$$$$
>  <Compound>
OC1OCC(COc2cc(Cl)c(Cl)cc2Cl)OC1O (stereo not given)

>  <Assay result>
33.1 µM (inactive)

$$$$
>  <Compound>
CC(=O)NC1C(OCC(=O)NC(C)C(=O)NC(CCC(=O)NCCCCCNc2ccc([N+](=O)[O-])c3[nH]c4ccccc4c(=O)c23)C(N)=O)C(O)C(CO)OC1(C)OCc1ccccc1 (stereo not given)

>  <Assay result>
> 50 µM (inactive)

$$$$
>  <Compound>
CSc1ncnc2c1ncn2CC(=O)C1CCC2C3CCC4=CC(=O)CCC4(C)C3CCC12C (stereo not given)

>  <Assay result>
10 µM (inactive)

$$$$
>  <Compound>
CC(=O)CC(=O)N1CCOC1=O

>  <Assay result>
> 10 µM (inactive)

$$$$
>  <Compound>
NC1=NC2(COC(c3ccccc3)(c3ccccc3)c3ccccc3)OC(COC(c3ccccc3)(c3ccccc3)c3ccccc3)C(O)C2O1 (stereo not given)

>  <Assay result>
> 100 µM (inactive)

$$$$
>  <Compound>
CC(C)[S+]1C2=C(CC(C)(C)CC2=O)[N-]c2ccccc21 (stereo not given)

>  <Assay result>
> 100 µM (inactive)

$$$$
>  <Compound>
COC12C=CC(CC1)C(C)(C)C2OS(C)(=O)=O (stereo not given)

>  <Assay result>
> 100 µM (inactive)

$$$$
>  <Compound>
c1ccc2c(c1)C(=Nc1ccc(N=C3c4ccccc4-c4ccccc43)cc1)c1ccccc1-2

>  <Assay result>
> 100 µM (inactive)

$$$$
>  <Compound>
Cc1ccsc1C(=S)Nc1ccc(Cl)c(C(=O)OC(C(C)C)C(C)C)c1

>  <Assay result>
19.5 µM (inactive)

$$$$
>  <Compound>
NNS(=O)(=O)c1ccc(/C=C2\NC(=O)NC2=O)cc1

>  <Assay result>
> 100 µM (inactive)

$$$$
>  <Compound>
O=C1/C(=C\c2cccc(Oc3ccccc3)c2)S(=O)(=O)C(c2ccccc2)N1c1cccc(Cl)c1 (stereo not given)

>  <Assay result>
78.2 µM (inactive)

$$$$

---

Tested on: SK-MEL-5
Experiment: NCI tumour cell line growth inhibition, 48 h
Calls of active or inactive are those of the source. Rule as the data show it: active = GI50 up to about 1.1 µM and inactive = higher.
Classes used: class 1 for active, class 0 for inactive

>  <Molecule>
O=C1C(CN2CCCCC2)CCC1CN1CCCCC1 (stereo not given)

>  <Label class>
class 0

$$$$
>  <Molecule>
CN(c1ccccc1Cl)S(=O)(=O)c1ccc([N+](=O)[O-])cc1

>  <Label class>
class 0

$$$$
>  <Molecule>
COc1ccc(-c2cc(-c3ccccc3)[nH]c(=S)c2C#N)cc1

>  <Label class>
class 0

$$$$
>  <Molecule>
O=[N+]([O-])c1ccc(N2C[N+](c3ccccc3)=NC(c3ccccc3)=N2)cc1

>  <Label class>
class 0

$$$$
>  <Molecule>
CN(NC1=NCCO1)c1ccc2ccccc2c1

>  <Label class>
class 0

$$$$
>  <Molecule>
CC(=O)OCC1OC(n2nc(Cc3ccccc3)c(=S)[nH]c2=S)C(OC(C)=O)C(OC(C)=O)C1OC(C)=O (stereo not given)

>  <Label class>
class 0

$$$$
>  <Molecule>
O=CCCCC(Sc1ccccc1)Sc1ccccc1

>  <Label class>
class 0

$$$$
>  <Molecule>
Cc1ccc(NC(=O)/C(Cc2cc(=O)oc3cc(O)ccc23)=N\NC(C)(C)C)cc1C

>  <Label class>
class 0

$$$$
>  <Molecule>
CN1C(=O)c2ccccc2NC(=O)c2cnn(C)c21

>  <Label class>
class 0

$$$$
>  <Molecule>
NNS(=O)(=O)c1ccc(/C=C2\NC(=O)NC2=O)cc1

>  <Label class>
class 0

$$$$
>  <Molecule>
COC(C)(C)/C=C/c1[nH]c2ccccc2c1CC(=O)NCCc1cn(C(c2ccccc2)(c2ccccc2)c2ccccc2)cn1

>  <Label class>
class 0

$$$$
>  <Molecule>
O=C(c1ccccc1Cl)n1oc2ccccc2c1=O

>  <Label class>
class 0

$$$$
>  <Molecule>
Nc1ccc2c3[nH]c4cc(N)ccc4cc-3nc2c1

>  <Label class>
class 1

$$$$
>  <Molecule>
COC(=O)[C@]1(C)[C@H]2C[C@H]3O[C@H]4[C@H](O)[C@@H](O)OC(CC(O)C(C5=CC(=O)OC5)C(C5=CC(=O)OC5)C(O)CC56CCCCC7[C@@H](C)[C@H](C[C@H]8[C@](C)(C(=O)OC)[C@H](O)CC[C@]78C)O[C@H]([C@@H](O)[C@H](O)O5)[C@H]6O)(CCCCC([C@@H]3C)[C@]2(C)CC[C@@H]1O)[C@H]4O (stereo not given in full)

>  <Label class>
class 1

$$$$
>  <Molecule>
O=C[C@]12CC=C3OC4OC5(CCCCC5)OC4[C@H]3[C@H]1C(=O)C=CC2=O (stereo not given in full)

>  <Label class>
class 0

$$$$
>  <Molecule>
CCCCc1c2c([n+]([O-])c3c1CCCC3)CCCC2

>  <Label class>
class 0

$$$$
>  <Molecule>
O=[N+]([O-])c1ccc2c(c1)nc1n2C(c2c(F)cccc2F)SC1 (stereo not given)

>  <Label class>
class 0

$$$$
>  <Molecule>
O=C(/C(=N/Nc1cn[nH]c(=O)c1Cl)c1ccccc1)c1ccccc1

>  <Label class>
class 0

$$$$
>  <Molecule>
O=c1[nH]cc(COCCCO)c(=O)[nH]1

>  <Label class>
class 0

$$$$
>  <Molecule>
COc1ccc(-n2cnnc2-c2nsc3ccccc23)cc1

>  <Label class>
class 0

$$$$
>  <Molecule>
NCCCC[C@H](N)C(=O)Nc1ccc(-c2nc3ccccc3s2)cc1

>  <Label class>
class 0

$$$$
>  <Molecule>
CC[C@H]1C=CCC[C@@]2(C[C@@H]3CC[C@@H]4[C@H](C(=O)OCCCCCCCCCCCCCCCC(=O)N(CCCN)C[C@@H](O)CCN)[C@]5(CCC[C@@H](C)O5)NC(=[N+]34)N2)O1

>  <Label class>
class 1

$$$$
>  <Molecule>
C[N+](C)(C)CC(=O)N/N=C/c1ccncc1

>  <Label class>
class 0

$$$$
>  <Molecule>
COc1cc([C@@H]2c3cc4c(cc3[C@@H](NC(=O)c3ccc([N+](=O)[O-])cc3)C3COC(=O)[C@@H]32)OCO4)cc(OC)c1O (stereo not given in full)

>  <Label class>
class 1

$$$$
>  <Molecule>
CCOC(=O)C(NC(=O)c1cccc(Cl)c1)(N1CCN(c2cc3c(cc2F)c(=O)c(C(=O)O)cn3C2CC2)CC1)C(F)(F)F (stereo not given)

>  <Label class>
class 0

$$$$

# credit: ChEMBL document CHEMBL1201862
